# System: RIVA
# assay_comment: growth inhibition by drug plus 177Lu-lilotomab satetraxetan (1 - RLU/untreated control) (fraction); higher = stronger inhibition
# experimental_conditions: 10 nM; time (day): 6; 177Lu-lilotomab satetraxetan 0.5 ug/ml
reported_metric: growth inhibition by drug plus 177Lu-lilotomab satetraxetan
Response field accepts a number only; no unit should be typed.

>>> experimental_result("CC1(CN2CCC(n3c(=O)[nH]c4ccccc43)CC2)OCc2ccccc2-n2cccc21 (stereo unspecified)")
0.612
>>> experimental_result("C[C@]12CC[C@H](O)CC1=CC[C@@H]1[C@@H]2CC[C@]2(C)C(c3cccnc3)=CC[C@@H]12")
0.595
>>> experimental_result("CNC(=O)c1ccccc1Sc1ccc2c(/C=C/c3ccccn3)n[nH]c2c1")
0.533
>>> experimental_result("CCOc1ccn(-c2ccc(F)cc2)c(=O)c1C(=O)Nc1ccc(Oc2ccnc(N)c2Cl)c(F)c1")
0.657
>>> experimental_result("Cc1ccc(NC(=O)c2cccc(C(C)(C)C#N)c2)cc1Nc1ccc2ncn(C)c(=O)c2c1")
0.651

The record that follows has no growth inhibition by drug plus 177Lu-lilotomab satetraxetan shown yet.
Challenge: Would you mind telling me what growth inhibition by drug plus 177Lu-lilotomab satetraxetan value was observed for CC(C)n1nc(-c2ccc3oc(N)nc3c2)c2c(N)ncnc21 ?
Response given: 0.587

====

Reported growth inhibition by drug alone is given for each of the following compounds.
# System: RIVA
# assay_comment: growth inhibition by drug alone (1 - RLU/untreated control) (fraction); higher = stronger inhibition
# experimental_conditions: 100 nM; time (day): 5; 177Lu-lilotomab satetraxetan 0 ug/ml
Response field accepts a number only; no unit should be typed.

Solved cases (6 shown):
>>> experimental_result("CO[C@H]1C[C@@H]2CC[C@@H](C)[C@@](O)(O2)C(=O)C(=O)N2CCCC[C@H]2C(=O)O[C@H]([C@H](C)C[C@@H]2CC[C@@H](O)[C@H](OC)C2)CC(=O)[C@H](C)/C=C(\\C)[C@@H](O)[C@@H](OC)C(=O)[C@H](C)C[C@H](C)/C=C/C=C/C=C/1C [Rapamycin (Sirolimus)]")
0.827
>>> experimental_result("N#Cc1c(O)c2c(-c3ccc(-c4ccccc4O)cc3)csc2[nH]c1=O")
-0.367
>>> experimental_result("CC(=O)Nc1nc(C)c(-c2ccc(Cl)c(S(=O)(=O)NCCO)c2)s1")
-0.1
>>> experimental_result("CCN(CC)CCNC(=O)c1c(C)[nH]c(/C=C2\\C(=O)Nc3ccc(F)cc32)c1C [Sunitinib Malate (Sutent)]")
-0.325
>>> experimental_result("O=c1cc(N2CCOCC2)oc2c(-c3ccccc3)cccc12")
-0.0363
>>> experimental_result("COc1cc(OC2CCN(C)CC2)ccc1Nc1ncc2c(n1)n(C1CCCC1)c(=O)n2C")
-0.545

The record that follows has no growth inhibition by drug alone shown yet.
Challenge: Would you mind telling me what growth inhibition by drug alone value was observed for CN(C)Cc1c(C(=O)NCCOc2ccc(C(=O)NO)cc2)oc2ccccc12 ?
Response given: 0.256

====

# Test system: RIVA
# assay_comment: growth inhibition by drug alone (1 - RLU/untreated control) (fraction); higher = stronger inhibition
# experimental_conditions: 10 nM; time (day): 4; 177Lu-lilotomab satetraxetan 0 ug/ml
Reported growth inhibition by drug alone is given for each of the following compounds.
Response field accepts a number only; no unit should be typed.

Solved cases (10 shown):
>>> experimental_result("CC(c1cc2ccccc2s1)N(O)C(N)=O (stereo unspecified)")
-0.0441
>>> experimental_result("CC(C)OC(=O)C1=CN(C(=O)c2ccc(F)c(F)c2)CC(C)(C)c2c1[nH]c1ccccc21")
0.00242
>>> experimental_result("Cc1nc(-c2ccc(OCC(C)C)c(C#N)c2)sc1C(=O)O")
0.00437
>>> experimental_result("CO[C@H]1C[C@@H]2CC[C@@H](C)[C@@](O)(O2)C(=O)C(=O)N2CCCC[C@H]2C(=O)O[C@H]([C@H](C)C[C@@H]2CC[C@@H](OCCO)[C@H](OC)C2)CC(=O)[C@H](C)/C=C(\\C)[C@@H](O)[C@@H](OC)C(=O)[C@H](C)C[C@H](C)/C=C/C=C/C=C/1C [Everolimus (RAD001)]")
0.768
>>> experimental_result("COc1cc2c(NC3CCN(C)CC3)nc(N3CCCN(C)CC3)nc2cc1OCCCN(C)C")
-0.195
>>> experimental_result("CN(C)CCOc1ccc(-c2nc(-c3ccncc3)c(-c3ccc4c(c3)CC/C4=N\\O)[nH]2)cc1")
-0.183
>>> experimental_result("CCOc1ccc(Cc2cc([C@@H]3O[C@H](CO)[C@@H](O)[C@H](O)[C@H]3O)ccc2Cl)cc1")
0.0489
>>> experimental_result("CCN(CC)C(=S)SSC(=S)N(CC)CC")
-0.1
>>> experimental_result("CC(C)(C)c1ccc(S(=O)(=O)/C=C/C#N)cc1")
"-1.37e-05"
>>> experimental_result("CCc1cncnc1N1CCN(Cc2nc3ccc(C(F)(F)F)cc3[nH]2)CC1")
-0.0231

Challenge: Param readout = growth inhibition by drug alone; param system = RIVA; param query = CC(C=CC(=O)NO)=CC(C)C(=O)c1ccc(N(C)C)cc1 (stereo unspecified) ; response: value
Response given: -0.0626

Challenge: One more compound: C[C@]12CC[C@@H]3c4ccc(O)cc4CC[C@H]3[C@@H]1CC[C@@H]2O
Response given: 0.163

Challenge: One more compound: COC(=O)c1ccc2c(C(=Nc3ccc(N(C)C(=O)CN4CCN(C)CC4)cc3)c3ccccc3)c(O)[nH]c2c1
Response given: -0.148

Challenge: One more compound: O=C1[C@H](CC[C@H](O)c2ccc(F)cc2)[C@@H](c2ccc(O)cc2)N1c1ccc(F)cc1 [Ezetimibe (Zetia)]
Response given: 0.0693

Challenge: One more compound: O=C(NCCCNc1nc(Nc2cccc(NC(=O)N3CCCC3)c2)ncc1I)c1cccs1
Response given: 0.272

Challenge: One more compound: O=C(CCCCCCC(=O)Nc1ccccc1)NO [Vorinostat (SAHA)]
Response given: -0.189

====

# System: U-2932
# assay_comment: growth inhibition by drug alone (1 - RLU/untreated control) (fraction); higher = stronger inhibition
# experimental_conditions: 1000 nM; time (day): 5; 177Lu-lilotomab satetraxetan 0 ug/ml
Reported growth inhibition by drug alone is given for each of the following molecules.
Response field accepts a number only; no unit should be typed.

>>> experimental_result("Cn1cnc([N+](=O)[O-])c1Sc1ncnc2[nH]cnc12 [Azathioprine (Azasan, Imuran)]")
0.00445
>>> experimental_result("COc1cc2ncnc(Nc3cccc(Br)c3)c2cc1OC")
-0.044
>>> experimental_result("Nc1ccc(-c2ccc3ncc4ccc(=O)n(-c5cccc(C(F)(F)F)c5)c4c3c2)cn1 [Torin 2]")
0.974

Challenge: Would you mind telling me what growth inhibition by drug alone value was observed for CCOc1ccc(Nc2nc(-c3c(C)nc4ccccn34)cs2)cc1 ?
Response given: 0.979

====

# Test system: RIVA
# assay_comment: growth inhibition by drug plus 177Lu-lilotomab satetraxetan (1 - RLU/untreated control) (fraction); higher = stronger inhibition
# experimental_conditions: 10 nM; time (day): 6; 177Lu-lilotomab satetraxetan 0.5 ug/ml
reported_metric: growth inhibition by drug plus 177Lu-lilotomab satetraxetan
Response field accepts a number only; no unit should be typed.

Solved cases (4 shown):
>>> experimental_result("CC(c1cc2ccccc2s1)N(O)C(N)=O (configuration not stated)")
0.547
>>> experimental_result("CCOc1cc2ncc(C#N)c(Nc3ccc(OCc4ccccn4)c(Cl)c3)c2cc1NC(=O)/C=C/CN(C)C")
0.541
>>> experimental_result("O=C(O)C(=O)O.[NH-]C1CCCCC1[NH-].[Pt+2] (configuration not stated) [Oxaliplatin (Eloxatin)]")
0.626
>>> experimental_result("C[C@]12CC[C@@H]3c4ccc(O)cc4CC[C@H]3[C@@H]1CC[C@@H]2O")
0.601

The record that follows has no growth inhibition by drug plus 177Lu-lilotomab satetraxetan shown yet.
Challenge: Param readout = growth inhibition by drug plus 177Lu-lilotomab satetraxetan; param system = RIVA; param query = CC1(C)CCC(c2ccc(Cl)cc2)=C(CN2CCN(c3ccc(C(=O)NS(=O)(=O)c4ccc(N[C@H](CCN5CCOCC5)CSc5ccccc5)c(S(=O)(=O)C(F)(F)F)c4)cc3)CC2)C1 ; response: value
Response given: 0.604

====

# Test system: RIVA
# assay_comment: growth inhibition by drug plus 177Lu-lilotomab satetraxetan (1 - RLU/untreated control) (fraction); higher = stronger inhibition
# experimental_conditions: 100 nM; time (day): 6; 177Lu-lilotomab satetraxetan 0.5 ug/ml
Please use condition met whenever growth inhibition by drug plus 177Lu-lilotomab satetraxetan is not below 0.5, and condition not met whenever it is.

// known answers, use as guide
>>> class_label("COC(=O)Nc1nc2cc(C(=O)c3cccs3)ccc2[nH]1")
"condition met"
>>> class_label("NC(=O)Nc1sc(-c2ccc(F)cc2)cc1C(N)=O")
"condition not met"
>>> class_label("COc1cc2ncnc(Nc3cccc(Br)c3)c2cc1OC")
"condition not met"
>>> class_label("CCNC(=O)c1noc(-c2cc(C(C)C)c(O)cc2O)c1-c1ccc(CN2CCOCC2)cc1")
"condition met"
>>> class_label("O=C(O)c1ccc2c(c1)nc(Nc1cccc(Cl)c1)c1ccncc12 [cx-4945 (Silmitasertib)]")
"condition not met"
>>> class_label("Nc1cccc2c1C(=O)N(C1CCC(=O)NC1=O)C2=O (centres undefined) [Pomalidomide]")
"condition not met"
>>> class_label("CCOc1cc(C(=O)Nc2ccc(Cl)c(-c3nc4ccccc4[nH]3)c2)cc(OCC)c1OCC")
"condition met"

Now for another entry.
Challenge: Kindly determine if growth inhibition by drug plus 177Lu-lilotomab satetraxetan recorded for N#CC(c1ccnc(NCCc2cccnc2)n1)c1nc2ccccc2s1 (centres undefined) is above or exactly 0.5.
Response given: condition not met
